Biological target: Glutamate NMDA receptor (Rattus norvegicus) (UniProt P35439+Q00959+Q00960+Q00961+Q62645+Q8VHN2+Q9R1M7)
Assay: Antagonistic activity against N-methyl-D-aspartate glutamate receptor from rat cortical slice
Format: functional
measured_metric: Kb
Write the quantity with the unit trailing the number.

CC12NC(Cc3ccc(-c4ccccc4)cc31)c1ccccc12 (configuration not stated); 260 nM
CC12NC(Cc3ccc(I)cc31)c1ccccc12 (configuration not stated); 510 nM
CC12NC(Cc3ccccc31)c1ccc(O)cc12 (configuration not stated); 130 nM
CC12NC(Cc3cc(O)ccc31)c1ccccc12 (configuration not stated); 510 nM
CC12NC(c3ccccc31)[C@@H](F)c1ccccc12 (some centres not stated); 230 nM

Prompt: For the compound CC12NC(Cc3ccc(CO)cc31)c1ccccc12 (configuration not stated) , what Kb is on record?
Completion: 270 nM

Prompt: Form field: reported Kb of CC12NC(Cc3ccccc31)c1ccc(Cl)cc12 (stereo in doubt; 63)
Completion: 1660 nM

---

In this section, each of the compounds is paired with its reported Ki.
Molecular target: Glutamate NMDA receptor
Assay: Inhibition of N-methyl-D-aspartate glutamate receptor (NMDA receptor) from homogenized rat brain membrane, using [3H]-MK-801 as a radioligand
Express the result in nM but write the number alone.

Worked cases, Ki given:
CC12NC(Cc3ccc(Br)cc31)c1ccccc12 (single isomer, unassigned; (-)); 113
CCOC(=O)CC12NC(O)(Cc3ccccc31)c1ccccc12 (configuration not stated); 3600
CC12NC(Cc3ccccc31)c1ccc(O)cc12 (configuration not stated); 23
NC(=O)CC12NC(O)(Cc3ccccc31)c1ccccc12 (configuration not stated); 6400
CC12NC(Cc3ccc(-c4ccccc4)cc31)c1ccccc12 (configuration not stated); 32

Prompt: Provide value of Ki for this record tested with Glutamate NMDA receptor: CCCCc1ccc2c(c1)C1(C)NC(C2)c2ccccc21 (configuration not stated)
Completion: 1250

Prompt: API: value(readout=Ki, system=Glutamate NMDA receptor) for record O[C@H]1c2ccccc2C2NC1c1ccccc12 (some centres not stated)
Completion: 7750

Prompt: Tell me reported Ki for CCC12c3ccccc3CC(Cc3ccccc31)N2C , tested with Glutamate NMDA receptor.
Completion: 2040

Prompt: Value wanted: Ki (Glutamate NMDA receptor) of entry c1ccc2c(c1)CC1NC2c2ccccc21 (configuration not stated)
Completion: 22600

Prompt: Value wanted: Ki (Glutamate NMDA receptor) of entry CC12NC(O)(Cc3ccccc31)c1ccccc12 (configuration not stated)
Completion: 77

Prompt: Could you share what Ki was measured for COc1ccc2c(c1)C1(C)NC2Cc2ccccc21 (stereo in doubt; 83) , tested on Glutamate NMDA receptor?
Completion: 36

Prompt: Param readout = Ki; param system = Glutamate NMDA receptor; param query = CC12NC(Cc3ccc(N=[N+]=[N-])cc31)c1ccccc12 (configuration not stated) ; response: value
Completion: 140

---

Measured log10(ED50) values are reported for all entries that follow.
Test system: Mus musculus
Assay: Inhibition of N-Methyl-D,L-aspartate induced convulsions in mice following 500 mg/kg i.p.
Assay type: functional
Details: ip, route intraperitoneal
Could you please treat all values as log10 of ED50 in mg/kg?

Some solved cases for reference:
CC12NC(Cc3ccc(Br)cc31)c1ccccc12 (stereo in doubt; 88); 0.10
CC12NC(c3ccccc31)[C@@H](F)c1ccccc12 (stereo not given in full); 0.10
Cc1ccc2c(c1)C1(C)NC(C2)c2ccccc21 (stereo not given); -0.28
COc1ccc2c(c1)C1(C)NC2Cc2ccccc21 (stereo in doubt; 83); -0.11
CC12NC(Cc3ccc(-c4ccccc4)cc31)c1ccccc12 (stereo not given); 0.89
CC12NC(Cc3ccccc31)c1cc(O)ccc12 (stereo in doubt; (+)-106); -0.01
FCC12NC(Cc3ccccc31)c1ccccc12 (stereo not given); 0.41
CC12NC(Cc3ccc(CO)cc31)c1ccccc12 (stereo not given); 0.08
CC12NC(c3ccccc31)[C@@H](O)c1ccccc12 (stereo in doubt; (+)120); -0.46

Now, please, on to the next compound.
Prompt: Param item = CC12NC(Cc3ccccc31)c1ccc(O)cc12 (stereo not given) ; retrieve measured log10(ED50).
Completion: -0.37
